tested on: male ob/ob mice; experiment: Hypoglycemic activity in ob/ob mice; type: in vivo; settings: dose 1 mg/kg oral, fasting, relative to control group
Response field label: string, one of label 1 (blood glucose decreasing rate (%) 3 hours later strictly below 30%) or label 0.

compound	qualitative-label
CN(Cc1ccc([C@H]2CC[C@H](C)CC2)cc1)c1ccc(-c2csc(COC(=O)N(CC(=O)O)Cc3ccccc3)n2)cc1 [Example 3-108]	label 1
CCCC(CCC)c1ccc(COc2ccc(C)cc2-c2csc(CN3Cc4ccccc4CC3C(=O)O)n2)cc1 (centres unmarked) [Example 3-25]	label 1
CC(C)CCN(CC(=O)O)Cc1nc(-c2ccc(N(C)Cc3ccc([C@H]4CC[C@H](C)CC4)cc3)cc2)cs1 [Example 3-92]	label 1
CCCC(CCC)c1ccc(N(C)Cc2ccc(-c3csc(N(C)Cc4ccc(C(=O)O)cc4)n3)cc2)cc1 [Example 1-19]	label 0
CC(C)Cc1ccc(CN(C)c2ccc(-c3csc(CN(CC(=O)O)C(=O)Cc4ccc(C(C)C)cc4)n3)cc2)cc1 [Example 3-58]	label 1
CCCC(CCC)c1ccc(OCc2ccc(-c3csc(CN4Cc5ccccc5CC4C(=O)O)n3)cc2)cc1 (centres unmarked) [Example 1-45]	label 0
CCCC(CCC)c1ccc(CN(C)c2ccc(-c3csc([C@@H]4Cc5ccccc5CN4CC(=O)[O-])n3)cc2)cc1.[Na+] [Example 3-64]	label 1
CCCC(CCC)c1ccc(N(C)Cc2ccc(-c3csc(CN(CC(=O)O)Cc4ccccc4)n3)cc2)cc1 [Example 1-25]	label 1
CN(Cc1ccc(C2CCCCC2)cc1)c1ccc(-c2csc(CNC(Cc3ccccc3)C(=O)O)n2)cc1 (centres unmarked) [Example 3-76]	label 0
CCC(CC)c1ccc(N(Cc2ccc(-c3csc(COc4cncc(C(=O)O)c4)n3)cc2)C(C)C)cc1 [Example 1-1]	label 0
CCCC(CCC)c1ccc(COc2ccc(C)cc2-c2csc(CN(CC(=O)O)Cc3ccccn3)n2)cc1 [Example 3-21]	label 1
CCCC(CCC)c1ccc(CN(C)c2ccc(-c3csc(CN4Cc5ccccc5CC4C(=O)O)n3)cc2)cc1 (centres unmarked) [Example 3-73]	label 1
CCCC(CCC)c1ccc(N(C)Cc2ccc(-c3csc(CN(C)S(=O)(=O)c4ccc(C(=O)O)cc4)n3)cc2)cc1 [Example 1-15]	label 0
CCCC(CCC)c1ccc(CN(C)c2ccc(-c3csc(CN(C)[C@@H](Cc4ccccc4)C(=O)O)n3)cc2)cc1 [Example 3-86]	label 1

====

# Lookup of reported IC50 keyed by entry
Molecular target: Recombinant human protein tyrosine phosphatase 1B (Homo sapiens, UniProt P18031)
Construct: purchased UBI
Sequence (P18031 1-435): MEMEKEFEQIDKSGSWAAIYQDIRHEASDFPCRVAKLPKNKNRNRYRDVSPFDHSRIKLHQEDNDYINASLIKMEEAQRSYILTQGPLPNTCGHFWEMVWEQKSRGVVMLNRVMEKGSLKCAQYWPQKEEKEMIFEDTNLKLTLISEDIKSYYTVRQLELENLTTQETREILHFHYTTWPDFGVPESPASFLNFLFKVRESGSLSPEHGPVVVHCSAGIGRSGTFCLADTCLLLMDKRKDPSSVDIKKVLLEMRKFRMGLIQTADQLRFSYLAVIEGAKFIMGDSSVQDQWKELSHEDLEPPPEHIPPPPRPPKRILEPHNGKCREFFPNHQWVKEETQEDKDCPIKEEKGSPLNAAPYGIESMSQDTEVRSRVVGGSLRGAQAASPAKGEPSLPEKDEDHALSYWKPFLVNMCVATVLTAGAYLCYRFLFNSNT
Experiment: Protein tyrosine phosphatase 1B inhibitory activity (malachite green, phosphorylated insulin receptor peptide substrate)
Type: biochemical
Conditions: recombinant human PTP1B, 60 min room temperature, absorbance 650 nm

compound	u	limit-sign	IC50
CCCC(CCC)c1ccc(OCc2ccc(-c3csc(CN(CC(=O)O)Cc4nc5ccccc5n4C)c3)cc2)cc1.Cl [Example 4-54]	µM	=	0.14
CCCC(CCC)c1ccc(OCc2ccc(-c3ccc(CN(CC(=O)O)Cc4c[nH]c(-c5ccccc5)n4)s3)cc2)cc1 [Example 4-94]	µM	=	0.12
CCCC(CCC)c1ccc(CN(C)c2ccc(-c3csc([C@@H]4Cc5ccccc5CN4CC(=O)[O-])n3)cc2)cc1.[Na+] [Example 3-64]	µM	=	0.21
CCCC(CCC)c1ccc(Cn2cc(-c3csc(COc4ccc(C(=O)O)cc4)n3)c3ccccc32)cc1 [Example 1-157]	µM	=	0.17
CN(Cc1ccc([C@H]2CC[C@H](C)CC2)cc1)c1ccc(-c2csc(CN3CCC(C(=O)O)(c4ccccc4)CC3)n2)cc1 [Example 3-69]	µM	=	0.16
CCCC(CCC)c1ccc(OCc2ccc(-c3csc(CN(CC(=O)O)C(=O)c4ccc(C(C)C)cc4)c3)cc2)cc1 [Example 4-70]	µM	=	0.17
CCCC(CCC)c1ccc(COc2ccc(-c3csc(CN4CCN(c5cccc(C(=O)O)c5)CC4)n3)cc2)cc1 [Example 1-156]	µM	=	0.19
Cl.O=C(O)CN(Cc1ccccc1)Cc1ccc(-c2cn(Cc3ccc(C4CCCCC4)cc3)c3ccccc23)s1 [Example 4-63]	µM	=	0.42
CCCC(CCC)c1ccc(OCc2ccc(-c3csc(CN(CC(=O)O)C(=O)N(C)c4ccccc4)c3)cc2)cc1 [Example 4-72]	µM	=	0.29
C[C@H]1CC[C@H](c2ccc(COc3ccc(-c4ccc(CN(CC5CCCCC5)C(=O)Nc5ccc(C(=O)O)cc5)s4)cc3)cc2)CC1 [Example 4-80]	µM	<	0.1
CCCC(CCC)c1ccc(OCc2ccc(-c3csc(COc4cc(C(=O)O)ccc4NC(=O)CN(C)C)c3)cc2)cc1 [Example 4-56]	µM	=	0.2
CCCC(CCC)c1ccc(OCc2ccc(-c3ccc(C(=O)N4CCC(c5ccc(C(=O)O)cc5)CC4)s3)cc2)cc1 [Example 4-53]	µM	=	0.07
O=C(O)CCN(Cc1ccccc1)Cc1ccc(-c2ccc3c(c2)CCC3Cc2ccc(C3CCCCC3)cc2)s1 (centres unmarked) [Example 4-84]	µM	=	0.27
CCCC(CCC)c1ccc(OCc2ccc(-c3csc(CN(CC(=O)O)Cc4ccc5ccccc5n4)c3)cc2)cc1 [Example 4-87]	µM	=	0.12

====

tested on: male ob/ob mice; test: Hypoglycemic activity in ob/ob mice; format: in vivo; details: dose 3 mg/kg oral, fasting, relative to control group
Output True for blood glucose decreasing rate (%) 3 hours later not less than 30%; output False otherwise.

chemical-smiles	target-system	qualitative-label
CN(Cc1ccc(C2CCCCC2)cc1)c1ccc(-c2csc(CN(C)S(=O)(=O)c3ccc(C(=O)O)cc3)n2)cc1	male ob/ob mice	False
CN(Cc1ccc(C2CCCCC2)cc1)c1ccc(-c2csc(CN3CCC(C(=O)O)(c4ccccc4)CC3)n2)cc1	male ob/ob mice	False
CCC(CC)c1ccc(N(Cc2ccc(-c3csc(CN(CC(=O)O)CC(=O)Nc4ccc(C(C)C)cc4)n3)cc2)C(C)C)cc1	male ob/ob mice	False
CN(Cc1ccc(C2CCC(C)(C)CC2)cc1)c1ccc(-c2csc(CN(C)S(=O)(=O)c3ccc(C(=O)O)cc3)n2)cc1	male ob/ob mice	True
CCCC(CCC)c1ccc(CN(C)c2ccc(-c3csc(CN(CC(=O)O)Cc4ccccc4)n3)cc2)cc1	male ob/ob mice	True
CN(Cc1ccc(C2CCCCC2)cc1)c1ccc(-c2csc(CN(CC(=O)O)Cc3ccccc3)n2)cc1	male ob/ob mice	True
CN(Cc1ccc(C(=O)O)cc1)c1nc(-c2ccc(COc3ccc(C4CCCCC4)cc3)cc2)cs1	male ob/ob mice	False

====

measurement-label: melting point

molecule	measurement-label	test-value
CCCC(CC)c1ccc(N(Cc2ccc(-c3csc(CN4CCC(C(=O)O)CC4)n3)cc2)C(C)C)cc1 (centres unmarked) [Example 1-152]	melting point	149 to 151 °C
CN(Cc1ccc(C(=O)O)cc1)c1nc(-c2ccc(COc3ccc(C4CCCCC4)cc3)cc2)cs1 [Example 1-37]	melting point	209 to 211 °C
CN(Cc1ccc([C@H]2CC[C@H](C)CC2)cc1)c1ccc(-c2csc(CN(CC(=O)O)Cc3ccccc3)n2)cc1 [Example 3-32]	melting point	157 to 159 °C
Cc1ccc(OCc2ccc(C3CCCCC3)cc2)c(-c2csc(CN(C)[C@@H](Cc3ccccc3)C(=O)O)c2)c1 [Example 4-102]	melting point	117 to 123.1 °C
CCCC(CCC)c1ccc(COc2ccc(C)cc2-c2csc(CN(CC(=O)O)Cc3ccccn3)n2)cc1 [Example 3-21]	melting point	118 to 120 °C
CCCC(CCC)c1ccc(Cn2c(-c3csc(CN4CCc5ccc(C(=O)O)cc5C4)n3)nc3ccccc32)cc1 [Example 1-169]	melting point	189.2 to 190.3 °C
CCCC(CCC)c1ccc(N(Cc2ccc(-c3csc(COc4cc(C(=O)O)ccc4NC(C)=O)n3)cc2)C(C)C)cc1 [Example 1-108]	melting point	129 to 131 °C
CN(Cc1ccccc1)c1ccc(-c2csc(CN(CC(=O)O)Cc3ccc4ccccc4n3)n2)cc1 [Example 3-55]	melting point	144 to 147 °C
CC(C)CN(Cc1ccc(-c2csc(CN(CC(=O)O)Cc3ccccc3)n2)cc1)c1ccc(C(C)(C)C)cc1 [Example 1-23]	melting point	133 °C
CCCC(CCC)c1ccc(OCc2ccc(-c3ccc(CN(CC(=O)O)CC(=O)Nc4ccccc4)s3)cc2)cc1 [Example 4-10]	melting point	122 to 124 °C
CC(C)CN(Cc1ccc(-c2csc(CN(CC(=O)O)C(=O)c3cccnc3)n2)cc1)c1ccc(C(C)(C)C)cc1 [Example 1-30]	melting point	193 °C
CN(Cc1ccc(C2CCCCC2)cc1)c1ccc(-c2csc(CN3CCCC(C(=O)O)C3)n2)cc1 (centres unmarked) [Example 3-66]	melting point	176 to 180 °C
O=C(O)CCN(Cc1ccccc1)Cc1ccc(-c2ccc3c(c2)CCC3Cc2ccc(C3CCCCC3)cc2)s1 (centres unmarked) [Example 4-84]	melting point	121 to 128 °C
CCC(CC)c1ccc(N(Cc2ccc(-c3ccc(COc4cncc(C(=O)O)c4)s3)cc2)C(C)C)cc1 [Example 4-17]	melting point	160 to 164 °C
CC(C)Cc1ccc(CN(C)c2ccc(-c3csc(CN(CC(=O)O)C(=O)c4ccccc4)n3)cc2)cc1 [Example 3-61]	melting point	143 to 145 °C
CN(Cc1ccc(C2CCCCC2)cc1)c1ccc(-c2csc(CN(C)S(=O)(=O)c3ccc(C(=O)O)cc3)n2)cc1 [Example 3-100]	melting point	193 to 196 °C
CCCC(CCC)c1ccc(OCc2ccc(-c3csc(COc4cncc(C(=O)O)c4)n3)cc2)cc1 [Example 1-48]	melting point	165 to 171 °C
CCC(CC)c1ccc(COc2ccc(-c3csc(CN(CC(=O)O)Cc4cc(C)cc(C)c4)n3)cc2)cc1 [Example 3-18]	melting point	114 to 119 °C
CCCC(CCC)c1ccc(COc2ccc(-c3csc(CN4CCN(c5ccccc5C(=O)O)CC4)n3)cc2)cc1 [Example 1-155]	melting point	137 to 138 °C
CCCC(CCC)c1ccc(OCc2ccc(-c3csc(CN(CC(=O)O)Cc4ccc(-n5ccnc5)cc4)c3)cc2)cc1 [Example 4-91]	melting point	167.5 to 169.9 °C
CCCC(CCC)c1ccc(NC(=O)c2ccc(-c3csc(CN(CC(=O)O)Cc4ccccc4)n3)cc2)cc1 [Example 1-54]	melting point	201 to 202 °C
CN(Cc1ccc(C2CCCCC2)cc1)c1ccc(-c2csc(N(C)Cc3ccc(C(=O)O)o3)n2)cc1 [Example 3-75]	melting point	158 to 161 °C
CC(C)CN(Cc1ccc(-c2csc(CN(CC(=O)O)C(=O)c3ccccc3)n2)cc1)c1ccc(C(C)(C)C)cc1 [Example 1-28]	melting point	147 °C
CCCCOc1ccc(COc2ccc(-c3csc(CN4CCC(c5cccc(C(=O)O)c5)CC4)n3)cc2)cc1 [Example 1-175]	melting point	222 to 225 °C
Cc1ccc(OCc2ccc(-c3csc(CN(CC(=O)O)Cc4ccccc4)n3)cc2)c(C(C)(C)C)c1 [Example 1-43]	melting point	146 °C
CCCC(CCC)c1ccc(OCc2ccc(-c3csc(CN(C)S(=O)(=O)CCCC(=O)O)n3)cc2)cc1 [Example 1-51]	melting point	103.3 to 106.3 °C
CCCC(CCC)c1ccc(OCc2ccc(-c3ccc(CN(CC(=O)O)Cc4cc(-c5ccccc5)cs4)s3)cc2)cc1 [Example 4-98]	melting point	181.4 to 184.5 °C
CCCC(CCC)c1ccc(OCc2ccc(-c3csc(CN4Cc5ccccc5C[C@H]4C(=O)O)n3)cc2)cc1 [Example 1-46]	melting point	77 to 82 °C
CCCC(CCC)c1ccc(N(Cc2ccc(-c3csc(CN(CC(=O)O)C(=O)COCc4ccccc4)n3)cc2)C(C)C)cc1 [Example 1-134]	melting point	158 to 160 °C
